Consider the following binders; for each one, report its s/n ratio.
# Assayed System: T1, PCSK9Δhelix (human, Chemically biotinylated in the phage ELISAs; the site is not given.)
# T1 construct: construct M1-Q692 with engineered TEV site, cleaved by TEV; also called His-PCSK9Δhelix; open groove PCSK9Δhelix
# T1 sequence (prodomain, as listed by the source mutant limits assumed, chain 1 of 2): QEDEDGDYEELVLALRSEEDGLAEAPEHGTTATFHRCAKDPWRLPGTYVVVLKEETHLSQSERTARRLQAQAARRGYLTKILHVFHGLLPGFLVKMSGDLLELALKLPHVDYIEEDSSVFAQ
# T1 sequence (chain, as listed by the source mutant limits assumed, chain 2 of 2): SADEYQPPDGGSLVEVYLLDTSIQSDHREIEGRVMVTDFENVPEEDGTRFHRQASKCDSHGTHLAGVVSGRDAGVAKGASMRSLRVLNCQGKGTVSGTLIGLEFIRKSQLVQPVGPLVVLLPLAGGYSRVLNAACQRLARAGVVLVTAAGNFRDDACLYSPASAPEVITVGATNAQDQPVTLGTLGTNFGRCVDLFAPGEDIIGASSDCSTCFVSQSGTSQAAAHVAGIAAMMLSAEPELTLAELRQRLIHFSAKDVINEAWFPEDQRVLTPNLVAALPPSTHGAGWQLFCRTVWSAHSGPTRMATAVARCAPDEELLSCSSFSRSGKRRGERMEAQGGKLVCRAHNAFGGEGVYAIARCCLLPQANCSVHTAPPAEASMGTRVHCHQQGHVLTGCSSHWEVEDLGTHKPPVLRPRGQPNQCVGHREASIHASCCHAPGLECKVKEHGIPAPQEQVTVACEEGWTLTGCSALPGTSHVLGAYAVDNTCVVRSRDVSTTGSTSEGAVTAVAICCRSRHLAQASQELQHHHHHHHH
# Experiment: phage spot ELISA;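 note: phage clones bound to PCSK9 or PCSK9Δhelix by ELISA, noise being the same phage on NeutrAvidin, positive when signal above 0.4 and signal:noise above 2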
API note: the answer field is a bare number with no unit suffix.

Task: Look at this binder and give its reported s/n ratio. TVFTSWEEYLDWV (also called phage displaying Pep2-8) [phage-displayed Pep2-8 (on p8)]
Output: 21.8

Task: Look at this binder and give its reported s/n ratio. TAFTSWEEYLDWVGSGNPTYWLTRIS [SEQ ID NO 331]
Output: 28

Task: Look at this binder and give its reported s/n ratio. TAFTSWEEYLDWVGSGKNNYAYLINMPRAPGI [SEQ ID NO 325]
Output: 29.1

Task: Look at this binder and give its reported s/n ratio. TAFTSWEEYLDWVGSGGHPLWNLSRI [SEQ ID NO 316]
Output: 9.12

Task: Look at this binder and give its reported s/n ratio. TAFTSWEEYLDWVGSGPLLWNLQKVH [SEQ ID NO 310]
Output: 24.4

Task: Look at this binder and give its reported s/n ratio. TAFTSWEEYLDWVGSGMVYVDRGVRVFT [SEQ ID NO 322]
Output: 25.1

Task: Look at this binder and give its reported s/n ratio. TAFTSWEEYLDWVGSGSCSWNVERIRGCSV [SEQ ID NO 311]
Output: 26

Task: Look at this binder and give its reported s/n ratio. TAFTSWEEYLDWVGSGALWNMRRVESVAFR [SEQ ID NO 319]
Output: 20.1

Task: Look at this binder and give its reported s/n ratio. TAFTSWEEYLDWVGSGNVRCYRDVPSCS [SEQ ID NO 329]
Output: 26.3

Task: Look at this binder and give its reported s/n ratio. TAFTSWEEYLDWVGSGCPFYDWRCSDFS [SEQ ID NO 328]
Output: 26.5

Task: Look at this binder and give its reported s/n ratio. TAFTSWEEYLDWVGSGKLWNLTRISS [SEQ ID NO 312]
Output: 25.8

Task: Look at this binder and give its reported s/n ratio. TAFTSWEEYLDWVGSGACLNHFVSGNMIRC [SEQ ID NO 327]
Output: 8.17

Task: Look at this binder and give its reported s/n ratio. TAFTSWEEYLDWVGSGEDVVCYGRVDYMPLCV [SEQ ID NO 330]
Output: 24.8

Task: Look at this binder and give its reported s/n ratio. TAFTSWEEYLDWVGSGEHQFYSYRGVDVYR [SEQ ID NO 324]
Output: 26.2

Task: Look at this binder and give its reported s/n ratio. TAFTSWEEYLDWVGSGGCVKYRGSVSCQESKT [SEQ ID NO 323]
Output: 24.2

Task: Look at this binder and give its reported s/n ratio. TAFTSWEEYLDWVGSGKLWNLGRV [SEQ ID NO 306]
Output: 8.55

Task: Look at this binder and give its reported s/n ratio. TAFTSWEEYLDWV [phage-displayed Pep2-8V2A]
Output: 1.07

Task: Look at this binder and give its reported s/n ratio. TAFTSWEEYLDWVGSGPHSYWLDRVQ [SEQ ID NO 332]
Output: 24.6

Task: Look at this binder and give its reported s/n ratio. TAFTSWEEYLDWVGSGMPWNLARIER [SEQ ID NO 318]
Output: 30.3

Task: Look at this binder and give its reported s/n ratio. TAFTSWEEYLDWVGSGNCWSSLRGICENLG [SEQ ID NO 307]
Output: 22.5

Task: Look at this binder and give its reported s/n ratio. TAFTSWEEYLDWVGSGGPWNLNRV [SEQ ID NO 309]
Output: 29.3

Task: Look at this binder and give its reported s/n ratio. TAFTSWEEYLDWVGSGTRYADRGVMVYSLS [SEQ ID NO 321]
Output: 22.8

Task: Look at this binder and give its reported s/n ratio. TAFTSWEEYLDWVGSGVPWNLAKI [SEQ ID NO 315]
Output: 24.1

Task: Look at this binder and give its reported s/n ratio. TAFTSWEEYLDWVGSGVVLWNHSRIL [SEQ ID NO 313]
Output: 26.6

All figures here come from patent US20200283478A1.
